Target: κ opioid receptor (Homo sapiens, UniProt P41145)
Sequence (P41145 whole entry): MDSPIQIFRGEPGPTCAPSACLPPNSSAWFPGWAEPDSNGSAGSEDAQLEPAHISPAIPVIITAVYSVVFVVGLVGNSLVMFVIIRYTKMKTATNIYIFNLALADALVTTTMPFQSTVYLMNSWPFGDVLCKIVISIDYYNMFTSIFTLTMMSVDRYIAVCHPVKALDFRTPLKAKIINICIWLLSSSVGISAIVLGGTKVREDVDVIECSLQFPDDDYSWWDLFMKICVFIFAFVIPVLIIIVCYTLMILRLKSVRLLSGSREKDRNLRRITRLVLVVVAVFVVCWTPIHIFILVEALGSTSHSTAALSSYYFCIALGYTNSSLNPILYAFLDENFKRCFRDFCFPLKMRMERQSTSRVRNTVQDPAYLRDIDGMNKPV
Experiment: κ-opioid receptor [35S]GTPγS functional assay, U-2 OS cells
Format: biochemical
Set-up: expressed in transfected cells; host or cells: U-2 OS (in-house membranes)
Settings: U-2 OS cells; relative to U69,593; read-out: GTPγS κ Emax
Response field class: enum, chosen by comparing Emax against b0: < 20%; b1: ≥ 20% and < 70%; b2: ≥ 70%

query: For the record `CN1CC[C@@]2(C)c3cc(O)ccc3C[C@@H]1[C@H]2NCCc1ccc(Cl)c(Cl)c1` , report the class its Emax corresponds to.
result: b2

query: For the record `CN1CC[C@@]2(C)c3cc(O)ccc3C[C@@H]1[C@@H]2N(C)C(=O)c1ccccc1` , report the class its Emax corresponds to.
result: b2

query: For the record `CN1CC[C@@]2(C)c3cc(O)ccc3C[C@@H]1[C@H]2NCCc1ccc(S(N)(=O)=O)cc1` , report the class its Emax corresponds to.
result: b0

query: For the record `CCC[C@@]12CCN(C)C(Cc3ccc(OC)cc31)[C@@H]2N(C)C(=O)Nc1ccc(C#N)cc1` , report the class its Emax corresponds to.
result: b1

query: For the record `CN1CC[C@@]2(C)c3cc(O)ccc3C[C@@H]1[C@@H]2NCCc1cccs1` , report the class its Emax corresponds to.
result: b2

query: For the record `CN1CC[C@@]2(C)c3cc(O)ccc3C[C@@H]1[C@H]2NCCc1c[nH]c2ccccc12` , report the class its Emax corresponds to.
result: b1

query: For the record `CCC[C@@]12CCN(C)C(Cc3ccc(OC)cc31)[C@H]2N(C)C(=O)Nc1ccc(CN)cc1` , report the class its Emax corresponds to.
result: b1

query: For the record `CCC[C@@]12CCN(C)C(Cc3ccc(O)cc31)[C@H]2N(C)C(=O)Nc1ccc(C#N)cc1` , report the class its Emax corresponds to.
result: b1

query: For the record `CC(C)CCC(=O)N(C)[C@H]1[C@H]2Cc3ccc(O)cc3[C@]1(C)CCN2C` , report the class its Emax corresponds to.
result: b1

query: For the record `CN1CC[C@@]2(C)c3cc(O)ccc3C[C@@H]1[C@@H]2NCCc1ccc(S(N)(=O)=O)cc1` , report the class its Emax corresponds to.
result: b0

query: For the record `CN1CC[C@@]2(C)c3cc(O)ccc3C[C@@H]1[C@@H]2N(C)C(=O)Cc1ccccc1` , report the class its Emax corresponds to.
result: b2

query: For the record `CN1CC[C@@]2(C)c3cc(O)ccc3C[C@@H]1[C@H]2N(C)S(=O)(=O)c1cccc(C(F)(F)F)c1` , report the class its Emax corresponds to.
result: b0

query: For the record `CN1CC[C@@]2(C)c3cc(O)ccc3C[C@@H]1[C@@H]2NCCc1ccc(F)cc1` , report the class its Emax corresponds to.
result: b1

query: For the record `CN1CC[C@@]2(C)c3cc(O)ccc3C[C@@H]1[C@@H]2N(C)S(=O)(=O)c1cccc(C(F)(F)F)c1` , report the class its Emax corresponds to.
result: b2

query: For the record `CN1CC[C@]2(C)c3cc(O)ccc3C[C@H]1[C@@H]2NCCc1ccc(S(N)(=O)=O)cc1` , report the class its Emax corresponds to.
result: b0

query: For the record `C[C@]12CCN(CC3CC3)[C@H](Cc3ccc(O)cc31)[C@H]2NCCc1ccc(S(N)(=O)=O)cc1` , report the class its Emax corresponds to.
result: b0

query: For the record `CN1CC[C@@]2(C)c3cc(O)ccc3C[C@@H]1[C@H]2N(C)CCc1ccc(S(N)(=O)=O)cc1` , report the class its Emax corresponds to.
result: b1

query: For the record `CN1CC[C@@]2(C)c3cc(O)ccc3C[C@@H]1[C@@H]2NCC1CCN(C(=O)OC(C)(C)C)CC1` , report the class its Emax corresponds to.
result: b0

query: For the record `CN1CC[C@@]2(C)c3cc(O)ccc3C[C@@H]1[C@@H]2N(C)C(=O)Nc1nc2cc(F)ccc2s1` , report the class its Emax corresponds to.
result: b2

query: For the record `CN1CC[C@@]2(C)c3cc(O)ccc3C[C@@H]1[C@H]2NCCc1ccncc1` , report the class its Emax corresponds to.
result: b2

----------
Biological target: κ opioid receptor (Homo sapiens, UniProt P41145)
Assay: biochemical
Type: binding
Set-up: expressed in transfected cells; host or cells: HEK 293 (in-house membrane prep)
Conditions: HEK-293 or CHO cells
So I've got a bunch of compounds here, and I need their pKi values.
Quick note: pKi values are minus log10 of concentrations in mol/L.

query: Which pKi value belongs to COc1ccc2c(c1)[C@@]1(C)CCN(CC3CC3)C(C2)[C@H]1N(C)C(=O)Nc1ccc(C(N)=O)cc1 [Compound 82] ?
result: 4.99

query: Which pKi value belongs to COc1ccc2c(c1)[C@@]1(C)CCN(C)C(C2)C1NC(=O)/C=C/c1ccoc1 (stereo in doubt) [Compound 23] ?
result: 4.88

query: Which pKi value belongs to CCC=C1C2Cc3ccc(OC)cc3C1(C)CCN2C (stereo not shown) [Compound 6] ?
result: 5.50

query: Which pKi value belongs to COc1ccc2c(c1)[C@@]1(C)CCN(C)C(C2)[C@@H]1CNC(=O)Cc1ccc(Cl)c(Cl)c1 [Compound 75] ?
result: 6.73

query: Which pKi value belongs to CN1CC[C@]2(C)c3cc(O)ccc3C[C@@H]1[C@H]2COc1cncc(C(=O)O)c1 [Compound 33] ?
result: 5.55

query: Which pKi value belongs to CN1CC[C@]2(C)c3cc(O)ccc3C[C@H]1[C@@H]2NCCc1ccc(S(N)(=O)=O)cc1 [Compound 95] ?
result: 5.34

query: Which pKi value belongs to CN1CC[C@]2(C)c3cc(O)ccc3CC1C2N(C)C(=O)Cc1ccc(S(C)(=O)=O)cc1 (stereo in doubt) [Compound 27] ?
result: 7.45

query: Which pKi value belongs to CN1CC[C@@]2(C)c3cc(O)ccc3C[C@@H]1[C@@H]2NCCc1ccc(S(N)(=O)=O)cc1 [Compound 92] ?
result: 6.79

query: Which pKi value belongs to CN1CC[C@]2(C)c3cc(O)ccc3CC1[C@@H]2CC(=O)Nc1ccc(C(=O)O)cc1 [Compound 32] ?
result: 4.89

query: Which pKi value belongs to CN(C(=O)Nc1ccc(C#N)cc1)C1C2Cc3ccc(O)cc3[C@@]1(C)CCN2Cc1ccoc1 (stereo in doubt) [Compound 90] ?
result: 8.76

query: Which pKi value belongs to CN(C)C(=O)C(CCN1CC[C@]2(C)c3cc(O)ccc3CC1[C@@H]2O)(c1ccccc1)c1ccccc1 [Compound 21] ?
result: 5.91

query: Which pKi value belongs to CN1CC[C@@]2(C)c3cc(O)ccc3C[C@@H]1[C@@H]2N(C)CC1CCN(C(=O)OC(C)(C)C)CC1 [Compound 31] ?
result: 9.47

query: Which pKi value belongs to CN1CC[C@]2(C)c3cc(O)ccc3CC1C2N(C)C(=O)/C=C/c1ccoc1 (stereo in doubt) [Compound 24] ?
result: 8.93

query: Which pKi value belongs to COc1ccc2c(c1)[C@@]1(C)CCN(C)C(C2)C1N1CCCC(C(=O)O)C1 (stereo partly shown) [Compound 74] ?
result: 7.62

query: Which pKi value belongs to COC(=O)c1cccc([C@@]2(O)C3Cc4ccc(OC)cc4[C@@]2(C)CCN3C)c1 [Compound 64] ?
result: 4.91

query: Which pKi value belongs to CN1CC[C@]2(C)c3cc(O)ccc3CC1C2N(C)c1ccc(CCS(N)(=O)=O)cc1 (stereo in doubt) [Compound 51] ?
result: 8.11

query: Which pKi value belongs to COc1ccc2c(c1)[C@@]1(C)CCN(CC3CC3)[C@H](C2)[C@H]1N(C)C(=O)/C=C\c1ccoc1 [Compound 86] ?
result: 6.01

query: Which pKi value belongs to CCN(CC)CCON=C1C2Cc3ccc(OC)cc3C1(C)CCN2C (stereo not shown) [Compound 5] ?
result: 4.97

query: Which pKi value belongs to CN1CC[C@]2(C)c3cc(O)ccc3CC1C2Nc1ccc(CCS(N)(=O)=O)cc1 (stereo in doubt) [Compound 58] ?
result: 6.47

----------
So I've got a bunch of compounds here, and I need their pEC50 values.
Target: UniProtKB P35372
Sequence (P35372 whole entry, species assumed): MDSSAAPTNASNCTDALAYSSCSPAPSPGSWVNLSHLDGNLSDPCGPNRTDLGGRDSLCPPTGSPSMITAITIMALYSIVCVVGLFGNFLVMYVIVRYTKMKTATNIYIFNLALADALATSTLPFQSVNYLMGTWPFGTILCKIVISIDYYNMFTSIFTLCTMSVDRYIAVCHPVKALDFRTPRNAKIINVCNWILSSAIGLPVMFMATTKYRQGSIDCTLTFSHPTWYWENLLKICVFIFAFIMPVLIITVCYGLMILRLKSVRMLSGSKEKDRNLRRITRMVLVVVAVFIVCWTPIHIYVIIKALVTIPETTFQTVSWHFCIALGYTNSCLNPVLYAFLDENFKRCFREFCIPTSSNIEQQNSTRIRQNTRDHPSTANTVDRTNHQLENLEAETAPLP
Test: μ-opioid receptor [35S]GTPγS functional assay, U-2 OS cells
Type: biochemical
Set-up: expressed in transfected cells; host or cells: U-2 OS
Conditions: U-2 OS cells; read-out: GTPγS μ EC50
Quick note: pEC50 values are minus log10 of concentrations in mol/L.

query: Which pEC50 value belongs to C[C@]12CCN(CC3CC3)[C@H](Cc3ccc(O)cc31)[C@@H]2NS(=O)(=O)c1cccc(C(F)(F)F)c1 [Compound 129] ?
result: 8.04

query: Which pEC50 value belongs to C[C@]12CCN(CC3CC3)[C@H](Cc3ccc(O)cc31)[C@@H]2NCCc1ccc(S(N)(=O)=O)cc1 [Compound 96] ?
result: 8.22

query: Which pEC50 value belongs to CN1CC[C@@]2(C)c3cc(O)ccc3C[C@@H]1[C@H]2NCCc1c[nH]c2ccccc12 [Compound 110] ?
result: 7.94

query: Which pEC50 value belongs to CN1CC[C@@]2(C)c3cc(O)ccc3C[C@@H]1[C@H]2NCCNC(=O)OC(C)(C)C [Compound 112] ?
result: 8.12

query: Which pEC50 value belongs to CN1CC[C@@]2(C)c3cc(O)ccc3C[C@@H]1[C@@H]2N(C)C(=O)c1ccsc1 [Compound 124] ?
result: 7.85
